Entries and their Ki values follow.
- TEST TARGET: GSK3β (H350L) (Homo sapiens (Human), UniProt P49841)
- Sequence (P49841 whole entry, stated change not applied): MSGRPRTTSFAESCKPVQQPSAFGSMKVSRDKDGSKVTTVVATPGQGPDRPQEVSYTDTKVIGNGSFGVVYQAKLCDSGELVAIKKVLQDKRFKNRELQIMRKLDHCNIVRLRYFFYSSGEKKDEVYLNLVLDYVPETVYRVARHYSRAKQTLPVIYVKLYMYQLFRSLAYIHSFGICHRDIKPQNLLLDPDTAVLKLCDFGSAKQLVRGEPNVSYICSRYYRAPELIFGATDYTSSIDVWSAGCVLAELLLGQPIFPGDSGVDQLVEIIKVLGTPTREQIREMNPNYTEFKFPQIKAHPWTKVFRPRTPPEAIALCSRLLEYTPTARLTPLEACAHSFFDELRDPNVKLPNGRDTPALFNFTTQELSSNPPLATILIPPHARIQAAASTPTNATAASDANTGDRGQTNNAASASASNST
- MEASUREMENT CONDITIONS: read-out: GSK3β Ki
Reply with the number and its unit after it.

Below are worked cases with known answers.
Cc1ccc(CC(=O)Nc2cc([C@H]3CC[C@@H](OC(=O)NC4(C)CC4)C3)[nH]n2)nc1
0.0144 µM
COc1ccc(CC(=O)Nc2cc([C@@H]3CC[C@H](OC(=O)N4C[C@@H](O)[C@@H]4C)C3)[nH]n2)cn1
0.00658 µM

Continue with the compound presented below.
Ask: So what's the measured Ki for this one? CC1(C)CCN1C(=O)O[C@H]1CC[C@@H](c2cc(NC(=O)Cc3ccccc3S(C)(=O)=O)n[nH]2)C1
Reply: 0.0158 µM

All figures here come from patent US11014911B2.
